# measurement_protocol: modulators of HCV replicon luciferase signal, primary screen, HCV replication inhibitor project, Huh7 cells, luciferase reporter (AID 1109);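 note: huh7 hepatoma cells harbouring a luciferase neomycin HCV replicon reporter; luciferase luminescence as measure of HCV replicon replication; test concentration not given here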
# conditions_used: 48 h, higher = more signal
Consider the following molecules and their measured z-score readings.
Give the figure only, with no unit attached.

{"molecule": "Cc1ccc(S[C@]2(C(=O)NCCCN(C)C)CC(=O)N(C3CCCCC3)[C@@H]2c2ccc(CO)cc2I)cc1", "z-score": -3.67}

Please look up its z-score: C=C[C@H](OC)[C@@H](OC(=O)Nc1ccc(SC)cc1)c1ccc(O)c(F)c1
3.8

Note, next up: CN(C)c1ccc(C(O)C2C=CC3C(=O)NC(=O)C3N2Nc2ccc(Cl)cc2Cl)cc1 (stereo not drawn)
-0.0428

Now the same for CC(C)(C)OC(=O)CC[C@]1(C(=O)N2CCCCC2)N=C(c2ccc(OCCCO)cc2)O[C@H]1c1ccccc1
-1.66

Next: COC(=O)C[C@H]1O[C@]2(C(=O)N(Cc3ccccc3)c3ccc(I)cc32)[C@@H](C)[C@@H]1[Si](C)(C)c1ccc(OC)cc1
0.486

Same question for CN1C(=O)C2C=CC(C(O)C3CC=CCC3)N(Nc3ccccc3)C2C1=O (stereo not drawn) please.
-0.556

// next record CCCC=C(CCC)[C@@H](NS(=O)(=O)c1ccc(C(F)(F)F)cc1)c1ccc(-c2ccccc2)cc1
-1.08

Then this molecule: CCOC(=O)C[C@H]1[C@H](OC(=O)c2ccccc2-c2ccccc2)[C@@H](NC(=O)C2CCCCC2)c2cc(OCCCO)ccc2N1C(=O)c1ccccc1
-1.4
